Molecular target: Recombinant ROCK2 (amino acids 5-554) (Homo sapiens)
Construct: ROCK2 (amino acids 5-554); by word order, ROCK2 from SignalChem
Assay: ROCK inhibition assay, LANCE Ultra TR-FRET kinase assay (ROCK2)
Conditions: 4 μM ATP, 50 nM ULight-CREBtide substrate
PROPERTY: IC50

N#Cc1cccc(C(CN)n2cnc3cc(-c4cn[nH]c4Cl)ccc3c2=O)c1 (centres unmarked): 100 to 500 nM
CC(=O)Nc1cccc(Cn2ccc3cc(-c4c[nH]nc4C(F)F)ccc3c2=O)c1: 10 to 100 nM
Cc1nocc1-c1ccc2c(=O)n(Cc3cccc(C(=O)NCC4CCNCC4)c3)ccc2c1: < 10 nM
NCC(c1cccc(C(N)=O)c1)n1cnc2cc(-c3cn[nH]c3C(F)(F)F)ccc2c1=O (centres unmarked): 100 to 500 nM
O=C(Nc1ccccc1)c1cccc(Cn2ccc3cc(-c4cn[nH]c4)ccc3c2=O)c1: 100 to 500 nM
Cc1nocc1-c1ccc2c(=O)n(Cc3cccc(C(=O)Nc4ccc5c(c4)CCOC5)c3)ccc2c1: < 10 nM
O=C(NCCN1CCOCC1)c1cccc(Cn2ccc3cc(N4CCOCC4)ccc3c2=O)c1 [Compound 216]: 100 to 500 nM

Field: next molecule
Query string: Record request: IC50 value, item `CNC(=O)c1cc(F)cc(Cn2ccc3cc(-c4ccnn4C)ccc3c2=O)c1`
Result string: 10 to 100 nM

* * *

Target: Recombinant ROCK2 (amino acids 5-554) (Homo sapiens, UniProt O75116)
Construct: ROCK2 (amino acids 5-554); by word order, ROCK2 from SignalChem
Sequence (O75116 5-554): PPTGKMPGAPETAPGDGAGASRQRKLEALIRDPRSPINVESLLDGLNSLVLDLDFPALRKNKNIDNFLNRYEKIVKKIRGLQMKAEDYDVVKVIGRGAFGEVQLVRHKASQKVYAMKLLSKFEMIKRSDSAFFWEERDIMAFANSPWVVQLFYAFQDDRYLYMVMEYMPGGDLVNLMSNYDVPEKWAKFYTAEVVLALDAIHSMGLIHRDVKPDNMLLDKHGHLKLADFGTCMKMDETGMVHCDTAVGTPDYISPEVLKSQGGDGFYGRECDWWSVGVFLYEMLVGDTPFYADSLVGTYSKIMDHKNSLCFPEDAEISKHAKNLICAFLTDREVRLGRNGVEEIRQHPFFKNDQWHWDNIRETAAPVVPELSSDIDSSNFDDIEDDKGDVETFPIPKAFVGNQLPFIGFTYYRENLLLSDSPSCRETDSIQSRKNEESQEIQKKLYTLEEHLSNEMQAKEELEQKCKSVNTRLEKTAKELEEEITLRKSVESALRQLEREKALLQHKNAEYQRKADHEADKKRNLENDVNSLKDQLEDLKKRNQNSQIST
Experiment: ROCK inhibition assay, LANCE Ultra TR-FRET kinase assay (ROCK2)
Conditions: 4 μM ATP, 50 nM ULight-CREBtide substrate
pIC50: −log10 of the molar value.
PROPERTY: pIC50

Study these solved cases before continuing.
[2H]C([2H])([2H])NC(=O)c1cccc(Cn2ccc3cc(-c4cn[nH]c4F)ccc3c2=O)c1: > 8.00
[2H]C([2H])([2H])NC(=O)c1cccc([C@@H](C)n2cnc3cc(-c4ccnn4C)ccc3c2=O)c1: > 8.00
CNC(=O)c1cccc(C(C)n2ccc3cc(-c4conc4C)ccc3c2=O)c1 (stereo not drawn): > 8.00
O=C(NCC1CCOCC1)c1cc(F)cc(Cn2ccc3cc(-c4c[nH]nc4C(F)F)ccc3c2=O)c1: > 8.00
[2H]C([2H])([2H])NC(=O)c1cccc(Cn2ccc3cc(-c4cn[nH]c4C(F)(F)F)ncc3c2=O)c1: > 8.00

Query string: For Recombinant ROCK2 (amino acids 5-554) (Homo sapiens, UniProt O75116), provide pIC50 of `C[C@H](c1cccc(C(=O)N(C)Cc2ccncc2)c1)n1cnc2cc(-c3cn[nH]c3C(F)(F)F)ccc2c1=O` please.
Result string: < 6.30

Query string: For Recombinant ROCK2 (amino acids 5-554) (Homo sapiens, UniProt O75116), provide pIC50 of `O=C(NCC1CCN(CC(F)(F)F)CC1)c1cc(F)cc(Cn2ccc3cc(N4CCOCC4)ccc3c2=O)c1` please.
Result string: 7.00 to 8.00

Query string: For Recombinant ROCK2 (amino acids 5-554) (Homo sapiens, UniProt O75116), provide pIC50 of `Cc1nocc1-c1ccc2c(=O)n(Cc3cccc(C(=O)NCC4CC4)c3)ccc2c1` please.
Result string: 7.00 to 8.00

Query string: For Recombinant ROCK2 (amino acids 5-554) (Homo sapiens, UniProt O75116), provide pIC50 of CNC(=O)c1cccc(C(C)n2cnc3cc(-c4ccnn4C)ccc3c2=O)c1 (stereo not drawn) please.
Result string: > 8.00

Query string: For Recombinant ROCK2 (amino acids 5-554) (Homo sapiens, UniProt O75116), provide pIC50 of `O=C(NCc1ccccc1)c1cccc(Cn2cnc3cc(-c4cn[nH]c4C(F)(F)F)ccc3c2=O)c1` please.
Result string: 7.00 to 8.00

* * *

Measured pIC50 accompanies every entry in the list below.
Molecular target: Recombinant ROCK2 (amino acids 5-554) (Homo sapiens, UniProt O75116)
Construct: ROCK2 (amino acids 5-554); by word order, ROCK2 from SignalChem
Test: ROCK inhibition assay, LANCE Ultra TR-FRET kinase assay (ROCK2)
Conditions: 4 μM ATP, 50 nM ULight-CREBtide substrate
pIC50: −log10 of the molar value.

Study these solved cases before continuing.
Cc1n[nH]cc1-c1ccc2c(=O)n(Cc3cccc(C(=O)Nc4ccc(S(N)(=O)=O)cc4)c3)ccc2c1 [Compound 36]: 6.30 to 7.00
CN1CCc2cc(NC(=O)c3cccc(Cn4ccc5cc(-c6ccnn6C)ccc5c4=O)c3)ccc2C1 [Compound 124]: > 8.00
CNC(=O)c1cccc(Cn2cc(C(C)O)c3cc(-c4c[nH]nc4Cl)ccc3c2=O)c1 (stereo not shown) [Compound 541]: > 8.00
O=C(NCC1CCN(CC(F)(F)F)CC1)c1cccc(Cn2ccc3cc(N4CCOCC4)ccc3c2=O)c1 [Compound 220]: 7.00 to 8.00
CN1CCC(CNC(=O)c2cccc(Cn3ccc4cc(-c5ccnn5C)ccc4c3=O)c2)CC1 [Compound 171]: > 8.00
[2H]C([2H])([2H])NC(=O)c1cccc([C@@H](C)n2cnc3cc(-c4cn[nH]c4Cl)ccc3c2=O)c1 [Compound 467]: > 8.00

Query string: Record request: pIC50 value, item Cn1ccc(NC(=O)c2cccc(Cn3cnc4cc(-c5cn[nH]c5C(F)(F)F)ccc4c3=O)c2)n1 [Compound 374]
Result string: > 8.00

* * *

Measured IC50 accompanies every entry in the list below.
Biological target: Recombinant ROCK2 (amino acids 5-554) (Homo sapiens)
Construct: ROCK2 (amino acids 5-554); by word order, ROCK2 from SignalChem
Test: ROCK inhibition assay, LANCE Ultra TR-FRET kinase assay (ROCK2)
Settings: 4 μM ATP, 50 nM ULight-CREBtide substrate

O=C(NC1CCOCC1)c1cc(F)cc(Cn2ccc3cc(N4CCOCC4)ccc3c2=O)c1: 0.1 to 0.5 µM
Cc1nocc1-c1ccc2c(=O)n(Cc3cccc(C(=O)NCC4CCN(C5COC5)CC4)c3)ccc2c1: 0.01 to 0.1 µM
CNC(=O)c1cccc(Cn2ccc3cc(N4CC5CC(C4)O5)ccc3c2=O)c1: > 0.5 µM

Field: next molecule
Query string: Record request: IC50 value, item `CN1CCC(NC(=O)c2cccc(Cn3cnc4cc(-c5cn[nH]c5C(F)(F)F)ccc4c3=O)c2)CC1`
Result string: < 0.01 µM

* * *

Biological target: Recombinant ROCK1 (amino acids 1-477) (Homo sapiens)
Construct: Recombinant ROCK1 (amino acids 1-477); by word order, ROCK1 from Carna Biosciences
Assay: ROCK inhibition assay, LANCE Ultra TR-FRET kinase assay (ROCK1)
Type: biochemical
Details: 1 μM ATP, 50 nM ULight-CREBtide substrate
PROPERTY: IC50

Study these solved cases before continuing.
Cc1nocc1-c1ccc2c(=O)n(Cc3cccc(C(=O)NCC4CCN(C5CC5)CC4)c3)ccc2c1: 101 to 500 nM
[2H]C([2H])([2H])NC(=O)c1cccc(Cn2cnc3cc(-c4conc4C)ccc3c2=O)c1: 11 to 100 nM
CNC(=O)c1cccc(Cn2cc(C(C)O)c3cc(-c4c[nH]nc4Cl)ccc3c2=O)c1 (stereo not shown): 11 to 100 nM
COc1cccc(C(CN)n2cnc3cc(-c4cn[nH]c4Cl)ccc3c2=O)c1 (stereo not shown): < 10 nM
[2H]C([2H])([2H])NC(=O)c1cccc(C(C)n2ccc3cc(-c4cn[nH]c4C(F)F)ccc3c2=O)c1 (stereo not shown): 11 to 100 nM

Query string: For Recombinant ROCK1 (amino acids 1-477) (Homo sapiens), provide IC50 of `CNC(=O)c1cc(F)cc(Cn2ccc3cc(N4CCOCC4)ccc3c2=O)c1` please.
Result string: 101 to 500 nM

Query string: For Recombinant ROCK1 (amino acids 1-477) (Homo sapiens), provide IC50 of CNC(=O)c1cccc(C(C)n2cc(CCO)c3cc(-c4conc4C)ccc3c2=O)c1 (stereo not shown) please.
Result string: 101 to 500 nM

* * *

Measured pIC50 accompanies every entry in the list below.
Target: Recombinant ROCK1 (amino acids 1-477) (Homo sapiens, UniProt Q13464)
Construct: Recombinant ROCK1 (amino acids 1-477); by word order, ROCK1 from Carna Biosciences
Sequence (Q13464 1-477): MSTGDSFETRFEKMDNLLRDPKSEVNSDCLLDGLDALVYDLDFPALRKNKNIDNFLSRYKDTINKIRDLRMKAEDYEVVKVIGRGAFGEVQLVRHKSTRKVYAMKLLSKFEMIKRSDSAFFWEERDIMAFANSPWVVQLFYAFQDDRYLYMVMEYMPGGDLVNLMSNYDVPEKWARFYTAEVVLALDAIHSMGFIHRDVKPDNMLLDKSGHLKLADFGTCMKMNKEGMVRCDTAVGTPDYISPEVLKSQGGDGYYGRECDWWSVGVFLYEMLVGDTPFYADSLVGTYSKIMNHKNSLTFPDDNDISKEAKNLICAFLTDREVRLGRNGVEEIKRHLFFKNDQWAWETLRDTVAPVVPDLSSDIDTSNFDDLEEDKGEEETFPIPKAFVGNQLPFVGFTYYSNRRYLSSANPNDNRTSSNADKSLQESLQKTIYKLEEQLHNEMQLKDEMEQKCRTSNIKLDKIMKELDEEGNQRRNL
Test: ROCK inhibition assay, LANCE Ultra TR-FRET kinase assay (ROCK1)
Assay type: biochemical
Conditions: 1 μM ATP, 50 nM ULight-CREBtide substrate
Description: Kinase IC50 was determined through an in vitro assay based on LANCE Ultra TR-FRET (Time-Resolved Fluorescence Resonance Energy Transfer) homogeneous technologies method (Perkin Elmer). […] Compound activities were measured by Envision and IC50s were calculated. […] The reaction was incubated for 1 hour, and the signal was read in Envision in TR-FRET mode (excitation at 320 nm and emission at 615/665 nm). […]
pIC50: −log10 of the molar value.

Study these solved cases before continuing.
CNC(=O)c1cccc(Cn2ccc3cc(-c4cnoc4C)ccc3c2=O)c1 [Compound 301]: < 6.30
CNC(=O)c1cc([C@@H](C)n2cnc3cc(-c4cn[nH]c4C(F)(F)F)ccc3c2=O)ccc1F [Compound 456]: 6.30 to 7.00

Query string: Record request: pIC50 value, item Cn1ccc(NC(=O)c2cc(F)cc(Cn3ccc4cc(-c5ccnc(N)c5)ccc4c3=O)c2)n1 [Compound 201]
Result string: 7.00 to 7.96

Query string: Record request: pIC50 value, item CNC(=O)c1cccc(Cn2ccc3cc(N4CCOCC4)ccc3c2=O)c1 [Compound 328]
Result string: 6.30 to 7.00
